Kindly supply the reported EC50 values for the records listed here.
- Subject Of Test: UniProt P49841
- Method Description: concentration-response blocking of human GSK3B – biochemical, luminescence, cell-free homogeneous, retest, dose response (AID 434954)

Sample records with EC50:
Ask: Given the entry CN(Cc1c(C(=O)NN=Cc2ccc(O)cc2)nnn1-c1nonc1N)C1CCCCC1 , report its measured EC50.
Reply: 0.186 µM

Ask: Given the entry Cc1ccc(Nc2nc(NCCCN3CCOCC3)nc(N)c2[N+](=O)[O-])cc1C , report its measured EC50.
Reply: > 300 µM

Ask: Given the entry COc1ccc2c(c1)C(=O)Nc1cc(Cl)ccc1N2 , report its measured EC50.
Reply: > 300 µM

Record EC50 per entry; entries follow.
1. CCn1c(SCC(=O)Nc2ccc(F)cc2)nnc1C1CC1
2. COc1ccc(CCNC(=O)C(C(=O)c2ccccc2)n2cc(Cl)ccc2=O)cc1OC (stereo unspecified)
3. CCN1CCN(CCNC(=O)c2ccc3c(c2)NC(=O)/C(=C\c2ccc(OC)c(OC)c2)S3)CC1
4. CCOc1ccc(-c2nnc3ccc(SC)nn23)cc1
5. CCOC(=O)CNC(=O)CSc1ccc2nnc(-c3ccc(F)cc3)n2n1
6. CCN1/C(=C/c2ccc3cccc(C)c3[n+]2CC)Sc2ccccc21
7. CN1CCN(C(=O)CCS(=O)(=O)c2cc3c(cc2Cl)NC(=O)CO3)CC1

Reply:
["> 300 µM", "> 300 µM", "16.3 µM", "> 300 µM", "> 300 µM", "> 300 µM", "> 300 µM"]

----------
- Subject Of Test: Glycogen synthase kinase-3 beta (Homo sapiens)
- Sequence (P49841 whole entry): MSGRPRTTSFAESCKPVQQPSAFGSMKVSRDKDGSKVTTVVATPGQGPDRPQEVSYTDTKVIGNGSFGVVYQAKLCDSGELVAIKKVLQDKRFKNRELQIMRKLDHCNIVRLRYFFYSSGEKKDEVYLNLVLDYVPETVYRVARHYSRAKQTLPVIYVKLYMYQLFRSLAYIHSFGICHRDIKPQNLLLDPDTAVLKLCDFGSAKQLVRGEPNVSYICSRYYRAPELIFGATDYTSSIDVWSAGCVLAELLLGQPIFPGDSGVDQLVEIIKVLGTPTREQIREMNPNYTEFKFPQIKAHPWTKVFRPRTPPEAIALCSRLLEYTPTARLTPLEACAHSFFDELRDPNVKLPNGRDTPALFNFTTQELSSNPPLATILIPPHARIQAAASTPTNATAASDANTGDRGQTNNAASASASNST
- Method Description: concentration-response blocking of human GSK3B – biochemical, luminescence, cell-free homogeneous, retest, dose response (AID 434954)
Value Kind: EC50

Sample records with EC50:
Ask: Lab note: need EC50 with Glycogen synthase kinase-3 beta (Homo sapiens) for entry COc1ccc(Cl)cc1NC(=O)CS(=O)(=O)c1cccc2nsnc12 , please look it up.
Reply: > 300 µM

Ask: Lab note: need EC50 with Glycogen synthase kinase-3 beta (Homo sapiens) for entry COc1ccc(Nc2nc(NCc3ccco3)nc(N)c2[N+](=O)[O-])cc1 , please look it up.
Reply: > 300 µM

Ask: Lab note: need EC50 with Glycogen synthase kinase-3 beta (Homo sapiens) for entry COC(=O)C1=CN(Cc2ccc(OC)c(OC)c2)C=C(C(=O)OC)C1c1ccccc1F , please look it up.
Reply: > 300 µM

Ask: Lab note: need EC50 with Glycogen synthase kinase-3 beta (Homo sapiens) for entry O=C(NCC(c1ccco1)N1CCOCC1)c1cccc(Cl)c1 (stereo not given) , please look it up.
Reply: > 300 µM

Ask: Lab note: need EC50 with Glycogen synthase kinase-3 beta (Homo sapiens) for entry CN1CC(=O)Nc2ccc([N+](=O)[O-])cc2C1=O , please look it up.
Reply: > 300 µM

Ask: Lab note: need EC50 with Glycogen synthase kinase-3 beta (Homo sapiens) for entry COc1cc(C=Nn2c(C3CCCCC3)n[nH]c2=S)cc(Br)c1O , please look it up.
Reply: 4.17 µM

Ask: Lab note: need EC50 with Glycogen synthase kinase-3 beta (Homo sapiens) for entry COc1cccc(C(=O)Nc2nc3ccccc3s2)c1 [N-Benzothiazol-2-yl-3-methoxy-benzamide] , please look it up.
Reply: > 300 µM

Ask: Lab note: need EC50 with Glycogen synthase kinase-3 beta (Homo sapiens) for entry Cc1ccc(S(=O)(=O)N(C)C)cc1NC(=O)c1ccc(OC(F)(F)F)cc1 , please look it up.
Reply: > 300 µM

Ask: Lab note: need EC50 with Glycogen synthase kinase-3 beta (Homo sapiens) for entry CCOC(=O)c1nnn(-c2nonc2N)c1CSc1ccccc1 , please look it up.
Reply: 14.7 µM

Ask: Lab note: need EC50 with Glycogen synthase kinase-3 beta (Homo sapiens) for entry CCN1CCN(C(=O)Cn2nc(C)n3c(cc4c(OC)cccc43)c2=O)CC1 , please look it up.
Reply: > 300 µM

Record EC50 per entry; entries follow.
1. COC1=C/C(=C/c2c(N)n3cc(C)sc3nc2=O)C=CC1=O
2. O=C(O)CSCC(=O)NCc1c(Cl)cccc1Oc1ccccc1
3. O=C(Nc1nccs1)C1CCCN1S(=O)(=O)c1cccc2cccnc12 (stereo not given)
4. Cc1ccc(C(=O)c2coc3ccc(O)cc23)cc1
5. C=CCN1C(=O)NC(=O)/C(=C/c2ccc(OCC(=O)Nc3ccc(C)cc3)cc2)C1=O
6. CCOc1ccc2nc(N3CCC(C(=O)N4CCN(C5CCCCC5)CC4)CC3)sc2c1

Reply:
> 300 µM
> 300 µM
30.2 µM
11.2 µM
> 300 µM
> 300 µM

Record EC50 per entry; entries follow.
1. O=C(O)CCn1cc(/C=C\C(=O)c2ccc(Cl)cc2)c(-c2cccc(Br)c2)n1
2. c1cncc(-c2nc(NCc3ccc4c(c3)OCO4)c3ccccc3n2)c1
3. CCOC(=O)c1nnn(-c2nonc2N)c1CSc1ccc(C)cc1
4. CNC(=O)c1ccccc1NC(=O)c1cccc(S(=O)(=O)N2CCC(C)CC2)c1

Reply:
1: > 300 µM; 2: > 300 µM; 3: 160 µM; 4: > 300 µM

Record EC50 per entry; entries follow.
1. C[n+]1ccccc1C=Cc1cc(Br)ccc1O
2. O=C1CN(c2nc(-c3cccnc3)nc3sc4c(c23)CCCC4)CCN1
3. O=C(CN1C(=O)CCC1=O)Nc1cccc2c1C(=O)NC2=O
4. COc1ccc(OC)c(C(=O)c2coc3ccc(OCC(=O)O)cc23)c1

Reply:
> 300 µM
24.8 µM
2.36 µM
> 300 µM

Ask: Lab note: need EC50 with Glycogen synthase kinase-3 beta (Homo sapiens) for entry S=C1Nc2cc(Cl)ccc2Sc2ccccc21 , please look it up.
Reply: > 300 µM
